# target_or_test_system: T1, human A-beta(1-40) peptide, monomeric (BAM) (human, biotin at the C-terminus in capture ELISA, SPR and TR-FRET; not biotinylated where coated directly (Example 7))
# T1 construct: synthetic peptide (Anaspec), TFA/HFIP treated to give monomer; also called monomeric A-beta
# procedure_text: TR-FRET competition
measurement_type: IC50

ABII42D4 (VHH, also called ABIIPMP42D4) VHH: EVQLVESGGGLVLAGGSLRLSCVHSGPTFSTDTMGWFRQAPGKEREFVAAVTWNSGRTNYADSVKGRFTVSRDNTRNAAYLQMSGLKDEDTAVYYCTAHRLVVGGTSVGDWRYWGQGTQVTVSS; 46.8 nM
Fab fragment of monoclonal antibody m266 (Fab, V domains shown, also called Fab266; m266Fab) VH: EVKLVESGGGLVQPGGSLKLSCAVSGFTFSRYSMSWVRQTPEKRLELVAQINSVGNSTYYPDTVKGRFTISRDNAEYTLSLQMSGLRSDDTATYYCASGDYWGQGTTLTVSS VL: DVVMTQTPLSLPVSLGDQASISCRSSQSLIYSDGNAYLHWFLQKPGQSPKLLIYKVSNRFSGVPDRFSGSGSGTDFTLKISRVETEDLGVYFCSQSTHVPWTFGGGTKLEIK; 0.52 nM

The binder identified as reference VHH 2G6 (VHH, from WO2006/40153) VHH: QVKLEESGGGLVQPGGSLRLSCAASGFTFSNYWMYWVRQAPGKGLEWVSTISPRAANTYYADSVKGRFTISRDNAKNTLYLQMNSLEPDDTALYYCAKSLRYRDRPQSSDFLFWRQGTQVTVSS registered its IC50 at > 1000 nM

Reported IC50 ( ABII60A10 = ABII050 (VHH) VHH: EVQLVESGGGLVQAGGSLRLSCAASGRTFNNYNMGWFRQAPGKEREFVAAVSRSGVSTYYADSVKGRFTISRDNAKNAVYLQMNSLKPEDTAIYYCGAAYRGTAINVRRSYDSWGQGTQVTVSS ) = 11.1 nM
